- Assay Protocol: COS7 lysate on small-molecule microarray, probe aHis, 635 nm (AID 1123);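 further: z-score combines 667nm fluorescence intensity with signal-to-noise per printed compound spot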
- Condition: COS7 cell lysate, fluorescence, higher = more signal
Property Name: composite z-score
The response must contain the number and no unit.

Examples with their reported composite z-score follow.
>>> meas_value("CC(C)(C)OC(=O)CC[C@]1(C(=O)NCCN2CCOCC2)N=C(c2ccc(OCCCO)cc2)O[C@H]1c1ccccc1CN=[N+]=[N-]")
2.05
>>> meas_value("Cc1ccc(S[C@]2(C(=O)O)CC(=O)N(Cc3ccccc3)[C@@H]2c2ccc(CO)cc2)cc1")
1.02
>>> meas_value("C[C@@H]1CC[C@H]2C(=O)N3[C@@H](CC[C@@H](C)[C@@H]3c3cccc(N4CCOCC4)c3)C(=O)N2[C@H]1c1cccc(N2CCOCC2)c1")
0.8
>>> meas_value("COc1cc(CO)cc(I)c1O[C@H]1C=C(C(=O)NCCO)C[C@@H](NCCc2c[nH]c3ccccc23)[C@@H]1O")
0.414
>>> meas_value("COC(=O)[C@H]1[C@@H]2COc3ccccc3[C@H]2N[C@H]1C(=O)OC")
0.476

For O=C1c2ccccc2[C@](Cc2ccccc2I)(C(=O)O)[C@H](c2ccc(CO)cc2)N1C1CCCCC1 , what is its reported composite z-score?
3.57

For O=C1C2C=CC(C(O)C#Cc3ccccc3)N(Nc3ccccc3)C2C(=O)N1c1ccccc1 (stereo not drawn) , what is its reported composite z-score?
1.94

For C[N+](C)(C)CCCC[C@@H]1NC(=O)[C@H]2C[C@@H](C(=O)NCc3ccc(F)cc3)[C@@H](c3cccc(OCCO)c3)N2C1=O , what is its reported composite z-score?
1.48
